# Test system: MCF7 breast
# TEST NAME: NCI tumour cell line growth inhibition, 48 h
QUANTITY NAME: TGI

State its TGI for this compound: Cn1ccc(C(=O)NCCN(CCNC(=O)c2ccn(C)c(=O)c2O)CCNC(=O)c2cccc(=O)n2O)c(O)c1=O > 100 µM

// Input: O=C(c1ccccc1Br)C(F)(F)F . Output its TGI only. > 100 µM

Tell me its TGI given COc1cc(Cn2c(-c3ccccc3)c(Cl)c3c2-c2oncc2CC3)cc(OC)c1 as the entry. > 100 µM

---

# Test system: MDA-MB-435
# TEST NAME: NCI tumour cell line growth inhibition, 48 h
TGI overview
State just the number; it will be interpreted in µM.

Here's what some known entries look like.
COMPOUND	TGI [µM]
O=C(CC1(O)C(=O)N(Cc2ccccc2)c2ccc(F)cc21)c1ccc(C(=O)NCC2CCC3(CC2)OOC2(CCCCC2)OO3)cc1 (centres undefined)	1.42
O=[N+]([O-])c1ccc2c(c1)C1=C(CO2)Cc2ccccc2O1	80.5
COc1ccc2c(c1)C(=O)c1c-2c(N2CCN(C(=O)CNCCNCCO)CC2)nc2ccccc12	28.5

// fetch TGI given entry COc1cc2c3c(n(C)c(=O)c2cc1OC)-c1cc2c(cc1/C3=C\CN)OCO2 33.8

Return reported TGI. Input compound: [Cl][Hg][c]1cc[c]([Hg][Cl])o1 14.4

Determine its reported TGI: COc1cc(C2c3cc4c(cc3OC3(OC)COC(=O)C23)OCO4)cc(OC)c1OC(C)=O (centres undefined) 2.23

Specify TGI for O=C1/C(=C/c2cccc(Cl)c2Cl)N=C(c2ccccc2)N1C1CC1 and stop. 24.1

Recall and state the measured TGI for COc1ccc(S(=O)(=O)c2nnc(S(=O)(=O)Cc3ccccc3)s2)cc1 . 71.8

Identify measured TGI corresponding to CC(=O)c1c(C)n([O-])c2cc(Cl)c(Cl)cc2[n+]1=O 69.7

Identify the reported TGI for the following entry. O=C(N[C@@H](c1ccc(Cl)c(Cl)c1)C1CNC1)c1ccc2cnccc2c1 3.81

Dear colleague, please send me the reported TGI for C=C(C)[C@@H]1CC[C@]2(C(=O)NC3CCCCC3)CC[C@]3(C)[C@H](CC[C@@H]4[C@@]5(C)CCCNC(C)(C)[C@@H]5CC[C@]43C)[C@@H]12 when you can. 3.15

Input COc1cccc2c1C(=O)c1c(O)c3c(c(O)c1C2=O)C[C@](O)(C(=O)CO)C[C@H]3O[C@@H]1C[C@@H](NC(=O)CCCCCN(C)C2(c3ccc(F)cc3)CC3CCC2C3)[C@H](O)[C@@H](C)O1 (some centres undefined) , output reported TGI. 19.4

Return value of TGI for input CC(C)Oc1ccc2cc(-c3nn(CC4CCNCC4)c4ncnc(N)c34)ccc2c1 , no commentary. 14.6

Recall and state the measured TGI for CC(=O)c1[nH]c(NCc2ccccc2)c(C(=S)Nc2ccccc2)c1N . 33.9

---

# System: HOP-92 NSCLC
# TEST NAME: NCI tumour cell line growth inhibition, 48 h
QUANTITY NAME: TGI

Examples from the recorded data:
> print(dat)
                                   compound  quantity.name     value
1  N#Cc1c(N)n(-c2cccc(C(=O)O)c2)c(=O)c2cc([N+](=O)[O-])ccc12            TGI  > 100 µM
2  Cn1cc(C2=C(c3cn(CCCCO)c4ccccc34)C(=O)NC2=O)c2ccccc21            TGI   > 25 µM

Give the measured TGI for COc1cc(Cn2c(-c3ccccc3)c(Cl)c3c2-c2oncc2CC3)cc(OC)c1 > 100 µM

Could you please provide reported TGI for CC(OC(C)(C)C)[C@H](NC(=O)OCC(Cl)(Cl)Cl)C(=O)O (stereo not given in full) ? Thanks! > 100 µM

Look up TGI of Cc1cc(Cl)ccc1NC(=O)C(=O)Cc1nc2ccccc2o1 and report it. > 100 µM

---

TGI values by entry
# Test system: SN12C renal
# TEST NAME: NCI tumour cell line growth inhibition, 48 h

Illustrative cases are given below, each with its answer.
> print(dat)
                                   compound  quantity.name     value
1  CN(C)CC1CCCC/C1=N/OC(=O)c1ccc(Cl)cc1 (centres undefined)            TGI  > 100 µM
2        COc1cc2c(C)cc(O)cc2c2cc(O)c(C)cc12            TGI   19.8 µM
3  CC(=O)c1[nH]c(NCc2ccccc2)c(C(=S)Nc2ccccc2)c1N            TGI   50.8 µM

Now examine the next entry.
Could you please provide reported TGI for COc1ccc(P2(=S)OC(C)(C)C(C)(C)O2)cc1 ? Thanks! > 100 µM

---

# System: COLO 205 colon
# TEST NAME: NCI tumour cell line growth inhibition, 48 h
QUANTITY NAME: TGI

COMPOUND	TGI
OCC1OC(c2nc(C3=NCCCN3)cs2)C(O)C1O (stereo not drawn)	> 100 µM
CSc1nc(Nc2cccc(C(F)(F)F)c2)c2c(N)nn(C)c2n1	> 100 µM
Cc1cc2oc(=N)c(C#N)c(C)c2cc1C	> 100 µM
O=C(/C=C/c1cccc2ccccc12)c1ccccc1Cl	> 100 µM
COC(=O)c1cc2ccc(N)nc2[nH]c1=O	> 100 µM

Name the recorded TGI of the item O=C1C(c2c(O)[nH]c3ccc(F)cc23)=Nc2ccccc21 in your answer. > 100 µM

Please list TGI recorded for the compound CCCNC(=S)NNC(=O)CSc1nc(-c2ccccc2)c(-c2ccccc2)[nH]1 > 100 µM

Check the records and state TGI for Cn1cc(NC(=O)Nc2cc(C(=O)Nc3cc(C(=O)Nc4ccc(S(=O)(=O)O)c5cc(S(=O)(=O)O)ccc45)n(C)c3)n(C)c2)cc1C(=O)Nc1cc(C(=O)Nc2ccc(S(=O)(=O)O)c3cc(S(=O)(=O)O)ccc23)n(C)c1 > 100 µM

Kindly indicate its recorded TGI. Item: N#C/C1=C(\N)CCSSSC1 > 100 µM

For the compound CCOC(=O)C12OC(CCC1=O)C(C(=O)OC)=C2C(=O)OC (stereo not drawn) , report TGI. > 10 µM

---

# System: HT29 colon
# TEST NAME: NCI tumour cell line growth inhibition, 48 h
This listing pairs compounds with measured TGI.

> print(dat)
                    structure.smiles.string  test.target      value
1    O=C(CCc1n[nH]c(=S)o1)Nc1ccccc1C(F)(F)F   HT29 colon   > 100 µM
2  COc1ccc(NC(=O)/C(Cc2cc(=O)oc3cc(O)ccc23)=N\NC(C)(C)C)c(OC)c1   HT29 colon   > 100 µM
3  Cc1c2c(C#N)nccc2c(C)c2c1c1ccccc1n2Cc1ccccc1   HT29 colon   > 100 µM
4      O=c1cc(-c2cccc3ccccc23)[nH]c2ncccc12   HT29 colon  0.0608 µM

We next turn to a different compound, shown below.
Entry COc1ccc(-[n+]2nc(S(=O)(=O)O)c(/C=C/c3ccc(N(C)C)cc3)cc2C#N)cc1 needs its TGI filled in; supply it. > 100 µM

---

The reader will find reported TGI values listed item by item below.
# System: MDA-N
# TEST NAME: NCI tumour cell line growth inhibition, 48 h

These solved cases illustrate the format of a correct answer.
> print(dat)
                                   compound     value
1              Cc1cc2oc(=N)c(C#N)c(C)c2cc1C  > 100 µM
2  CCOC(=O)CN1C(=O)c2ccc(NC(=O)C(=O)O)cc2S1(=O)=O  > 100 µM

Please indicate TGI recorded for CCC(C)OC(=O)/C(Br)=C1/OC(=O)c2ccccc2-c2ccccc21 (stereo not drawn) > 100 µM

---

# Tested on: NCI-H23 lung
# TEST NAME: NCI tumour cell line growth inhibition, 48 h
QUANTITY NAME: TGI

For orientation, consider the following solved cases.
> print(dat)
                                   compound      value
1  CCOC1OC(=O)c2cc3ccc4c(c3c(-c3ccc5c(c3)OCO5)c21)OCO4 (centres undefined)  > 55.3 µM
2                O=C(O)[C@@H]1CCS(=O)(=O)N1   > 100 µM
3        O=C(/C=C/c1cccc2ccccc12)c1ccccc1Cl    28.5 µM
4  O=c1c(/C=C/c2c(O)ccc3ccccc23)nnc2sc(-c3cccc(Br)c3)nn12    40.3 µM
5  O=C1Nc2ccccc2/C1=N\[O-].O=C1Nc2ccccc2/C1=N\[O-].[Cu+2]   > 100 µM
6   CN1CCOC(c2ccccc2)O1 (centres undefined)   > 100 µM
7  Nc1nc(/C=C\c2ccc([N+](=O)[O-])s2)nc(N2CCCC2)n1    18.6 µM
8  CN1C2CCC1CC(=CCOC(c1ccc(F)cc1)c1ccc(F)cc1)C2      32 µM

Return value of TGI for input C=C(Cl)C(Br)(CCl)CCC(Br)C(C)(C)Cl (centres undefined) , no commentary. 5.57 µM

Output measured TGI for this item: O=C1/C(=C/c2ccc(Cl)cc2)CCC1CCN1CCOCC1 (centres undefined) > 100 µM

Output TGI of O=C(CSc1nc2ccccc2nc1-c1ccccc1)Nc1ccc(F)cc1 > 100 µM

Give the measured TGI for COC(=O)C1=C(C(=O)NNc2ccccc2)N(c2cccnc2Cl)C(c2ccccc2)=CC1c1ccccc1 (centres undefined) > 100 µM

# return recorded TGI for input COc1cccc(C2=NC(C(C)C)CO2)c1 (centres undefined) > 100 µM

Give a short answer stating reported TGI for COc1ccc(Nc2nnc(-c3cc(O)ccc3O)s2)cc1 . > 50 µM
